# target_system: TR-β (Homo sapiens, UniProt P10828)
# Sequence (P10828 1-461): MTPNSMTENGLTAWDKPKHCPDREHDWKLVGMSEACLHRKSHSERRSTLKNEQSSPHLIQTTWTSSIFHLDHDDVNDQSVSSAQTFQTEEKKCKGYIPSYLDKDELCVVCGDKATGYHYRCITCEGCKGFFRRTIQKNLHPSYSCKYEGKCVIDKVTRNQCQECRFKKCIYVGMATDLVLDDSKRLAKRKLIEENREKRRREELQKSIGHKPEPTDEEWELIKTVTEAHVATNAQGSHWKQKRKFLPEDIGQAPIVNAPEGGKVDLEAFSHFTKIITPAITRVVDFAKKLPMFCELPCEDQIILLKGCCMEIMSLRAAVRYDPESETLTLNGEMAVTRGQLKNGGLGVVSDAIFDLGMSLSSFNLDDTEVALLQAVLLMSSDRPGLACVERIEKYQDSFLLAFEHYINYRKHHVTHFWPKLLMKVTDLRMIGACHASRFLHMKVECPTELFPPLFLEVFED
# protocol_summary: Binding to TR isoform TR-β
property_name: IC50 (nM)
Numbers only, in nM.

# get_value(readout='IC50', item= "CC(C)c1cc(Oc2c(Br)cc(C(=O)O)cc2Br)cc(C(C)C)c1O" ) 910

---

# target_system: human TR-β LBD (Homo sapiens, UniProt P10828)
# Sequence (P10828 217-461 limits assumed): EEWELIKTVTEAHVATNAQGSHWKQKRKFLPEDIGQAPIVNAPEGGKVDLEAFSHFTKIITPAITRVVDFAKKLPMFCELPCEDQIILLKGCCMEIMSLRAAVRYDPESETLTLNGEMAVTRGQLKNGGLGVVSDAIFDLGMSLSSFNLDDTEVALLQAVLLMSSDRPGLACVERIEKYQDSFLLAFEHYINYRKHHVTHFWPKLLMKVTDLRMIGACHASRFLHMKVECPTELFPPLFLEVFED
property_name: pKd
Numbers only, as −log10 of the molar value.

# get_value(readout='pKd', item= "Cc1cc(C[C@H](N)C(=O)O)cc(C)c1Oc1ccc(O)c(C(C)C)c1" ) 8.10

---

# target_system: thyroid receptor (TR)
# protocol_summary: Receptor binding assay with TR from rat liver nuclei and [125I]T3
# assay_conditions: TR from rat liver nuclei, 1 nM [125I]T3, overnight at 4° C.; read-out: App.Kd
property_name: Kd (nM)
One number for each entry, in nM.

# get_value(readout='Kd', item= "O=C(N[C@@H](Cc1cc(I)c(Oc2ccc(O)c(I)c2)c(I)c1)C(=O)O)OCC1c2ccccc2-c2ccccc21" ) 4

Below are some compounds; for each one, tell me its Kd.
1. CCCCCCCCCCCCCCCCC(=O)N[C@@H](Cc1cc(I)c(Oc2ccc(O)c(I)c2)c(I)c1)C(=O)O
2. CC(C)(C)OC(=O)N[C@@H](Cc1cc(I)c(Oc2ccc(O)c(I)c2)c(I)c1)C(=O)O

1. 1400
2. 8

Below are some compounds; for each one, tell me its Kd.
1. O=C(N[C@@H](Cc1cc(I)c(Oc2ccc(O)c(I)c2)c(I)c1)C(=O)O)C(c1ccccc1)c1ccccc1
2. CC(C)(C)OC(=O)NC(Cc1cc(I)c(Oc2ccc(O)cc2)c(I)c1)C(=O)O (centres unmarked)

4
220

These entries and their values trace back to patent US20070027215A1.
